Consider the following compounds; for each one, report its CC50.
System: LOX IMVI
procedure_details: SRB 48 h growth assay, Melanoma LOX IMVI
Type: cell-based, human
details: Homo sapiens, read-out: Log10 LC50 (converted)
Output spec: scalar in µM, unitless text.

LOX IMVI CC50 of C#Cc1ccc(-n2c(/C=C/c3ccc(C(F)(F)F)cc3)nc3ncccc3c2=O)cc1 is 9.77

Here C#Cc1ccc(-n2c(/C=C/c3ccc4ccccc4c3)nc3ncccc3c2=O)cc1 was tested on LOX IMVI, and its CC50 came to 3.09

* * *

System: IGROV1
procedure_details: SRB 48 h growth assay, Ovarian IGROV1
Format: cell-based, human
details: Homo sapiens, IGROV-1, read-out: Log10 LC50 (converted)
quantity_measured: CC50 (µM)
Express it in µM; write the number only.

Reported CC50 of C#Cc1ccc(-n2c(/C=C/c3ccc4ccccc4n3)nc3ncccc3c2=O)cc1 [4t] : 5.37

Record summary for C#Cc1ccc(-n2c(/C=C/c3ccc(C(F)(F)F)cc3)nc3ncccc3c2=O)cc1 [4c] : reported CC50 = 8.32
